FYI, the data here is from PubChem BioAssay (NCI).

# System: SF-295 CNS
# measurement.notes: NCI tumour cell line growth inhibition, 48 h
measured.endpoint: GI50

given_smiles=CCOC(=O)c1sc(=S)c2c(C(=O)OCC)c(C(=O)OCC)sc2c1C(=O)OCC target_under_test="SF-295 CNS" val="31.4 µM"
given_smiles=N.N.NCCCCN.O=C([O-])C1(C(=O)[O-])CCC1.O=C([O-])C1(C(=O)[O-])CCC1.[Pt+4].[Pt+4] target_under_test="SF-295 CNS" val="> 100 µM"
given_smiles=CSc1nc2sc3cc(Cl)ccc3n2c(=N)c1C#N target_under_test="SF-295 CNS" val="2.21 µM"
given_smiles=COC1=CC(c2ccc[nH]2)=N/C1=C\c1[nH]c(C)c(C(=O)CCCCC(=O)Nc2ccccc2)c1C target_under_test="SF-295 CNS" val="6.11 µM"
given_smiles=COc1ccc2c(c1)CC[C@@H]1[C@@H]2CC[C@]2(C)C(c3ccco3)=C(C=O)C[C@@H]12 target_under_test="SF-295 CNS" val="3.4 µM"
given_smiles=N#Cc1ccnc(N2C(=O)CC[C@H]2C(=O)N(c2cncc(F)c2)[C@H](C(=O)NC2CC(F)(F)C2)c2ccccc2Cl)c1 target_under_test="SF-295 CNS" val="> 100 µM"
given_smiles=Nc1ccc(/C=N/Nc2ccnc3c(N)cccc23)c2cccnc12 target_under_test="SF-295 CNS" val="1.57 µM"
given_smiles=C=C1C(=O)O[C@H]2[C@H]1CC/C(COC(=O)NCc1c[nH]c3ccc(Cl)cc13)=C\CC[C@@]1(C)O[C@@H]21 target_under_test="SF-295 CNS" val="1.81 µM"
given_smiles=COc1ccc(/C=C/c2n[nH]c3ccc(N4CCOC4=O)cc23)cc1 target_under_test="SF-295 CNS" val="3.44 µM"

###

# System: HL-60(TB) leukemia
# measurement.notes: NCI tumour cell line growth inhibition, 48 h
Where a SMILES comes first, the peptide text is derived from it. [ ]: non-standard residue; d: D form. The star is where a group is joined. Octanoyl = CCCCCCCC(=O)*; Aib = CC(C)(N)C(=O)O; tBu = CC(C)(C)*
Measured TGI accompanies every entry in the list below.
measured.endpoint: TGI

compound=COc1ccc2c(c1)OC[C@@H]1c3cc4c(cc3O[C@H]21)OCO4 val="> 100 µM"
compound=O=C1CC2(CCNCC2)C(=O)N1N1CCCC1 val="> 100 µM"
compound=CCOC(=O)c1sc(Nc2ccc(Cl)cc2)nc1C val="7.17 µM"
compound=CO[C@@H]1[C@H](OC(=O)NC(=O)CCl)CC[C@]2(CO2)[C@H]1[C@@]1(C)O[C@@H]1CC=C(C)C val="14.8 µM"
compound="CN(C)c1ccc(/C=C(\\NC(=O)c2ccccc2)C2NC(Cc3c[nH]c4ccccc34)C(=O)O2)cc1 (centres undefined)" val="39.9 µM"
compound="OC1CN2CCS[C@H]2C(O)C1O (some centres undefined)" val="> 100 µM"
compound="CCCCCCCC(=O)NC(C)(C)C(=O)NC(COC(C)(C)C)C(=O)NC(CC(C)C)C(=O)NC(C)(C)C(=O)NC(COC(C)(C)C)C(=O)NC(COC(C)(C)C)C(=O)NC(CC(C)C)C(=O)NC(C)(C)C(=O)NC(COC(C)(C)C)C(=O)NC(C(=O)NC(CC(C)C)C(=O)OC)C(C)CC (centres undefined) (Octanoyl-[Aib]S(tBu)L[Aib]S(tBu)S(tBu)L[Aib]S(tBu)IL-OMe; configuration not given here)" val="15.6 µM"
compound=COC1=CC(c2ccc[nH]2)=N/C1=C\c1[nH]c(C)c(C(=O)CCCCC(=O)Nc2ccccc2)c1C val="5.37 µM"
compound="COC(=O)[C@]1(C)CCC[C@@]2(C)C1CCC1=CC3(C(C)C)CCC12OO3 (some centres undefined)" val="37.8 µM"
compound=N#Cc1ccnc(N2C(=O)CC[C@H]2C(=O)N(c2cncc(F)c2)[C@H](C(=O)NC2CC(F)(F)C2)c2ccccc2Cl)c1 val="> 100 µM"
compound=NCCC(O)(P(=O)(O)O)P(=O)(O)O val="> 100 µM"
compound=COc1ccc([N+](=O)[O-])c(S(=O)(=O)c2ccc(Cl)cc2)n1 val="41 µM"
compound="CCCCCCCCCCCCCCCCOCC(COP(=O)([O-])OCC[N+](C)(C)C)OCCCCCCCCCCCCCCCC (centres undefined)" val="> 100 µM"
compound=Oc1ccc(Cn2c(-c3ccc(O)c(O)c3)nc3ccccc32)cc1O val="51.1 µM"
